Assay: qHTS for differential inhibitors of proliferation of Plasmodium falciparum line HB3 (AID 1886);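 note: parasites grown with compound for 72 h before SYBR Green readout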
Details: Plasmodium falciparum HB3 proliferation inhibition; series mostly up to 28.7 µM
Records with an inconclusive call do not appear. The source made the active and inactive calls. Calls come from the whole dose curve; as a rule, active = well fitted curve in the direction sought with a large enough effect; inconclusive = small, poorly fitted or top-dose-only effect, or another doubt; inactive = no such curve, though single readings can be large or run the other way.
Select the matching outcome among t (active), f (inactive)

INPUT: GET /call?item= NC(N)=NCCC[C@H](N)C(=O)O returns the recorded outcome of this test.
OUTPUT: f

INPUT: Assay result, entry CCN(CC)CCCC(C)Nc1c2ccc(Cl)cc2nc2ccc(OC)cc12 (stereo unspecified) — outcome?
OUTPUT: t

INPUT: What did this assay record as the result for COc1ccc(Cl)cc1C(=O)NCCc1ccc(S(=O)(=O)NC(=O)NC2CCCCC2)cc1 ?
OUTPUT: f

###

Experiment: Drug repurposing screens with cells derived from glioblastoma tumor samples (AID 1345199); note: % is set by controls: 0 for no effect and ±100 for the full control effect; nearly all actives have a fitted effect of over 40% in size
Settings: GBM patient neurospheres viability, ATP luminescence, 48 h; at 45.9 µM (top of the series); tumour line D
Results filed as inconclusive are left out.
Kindly supply the reported activity, negative = cell killing values for the records listed here.
Numbers only, in %.

- Compound: "CCCCc1ncc(/C=C(\\Cc2cccs2)C(=O)O)n1Cc1ccc(C(=O)O)cc1"
  Units: "%"
  Val: 9.77
- Compound: "CCCCOC(=O)c1ccc(O)cc1"
  Units: "%"
  Val: -11.1
- Compound: "CC(C)(C)C(=O)C(Oc1ccc(Cl)cc1)n1ccnc1 (stereo not drawn)"
  Units: "%"
  Val: -26.6

Please go through the list and note activity, negative = cell killing for each compound.
1. O=C(O)CN1C(=O)c2cccc3cccc(c23)C1=O
2. Oc1cccc(O)c1
3. Cn1c(=O)c2c(ncn2CC2OCCO2)n(C)c1=O
4. C[C@@H]1CCN(C(=O)[C@H](CCCN=C(N)N)NS(=O)(=O)c2cccc3c2NC[C@H](C)C3)[C@@H](C(=O)O)C1
5. CC(C)(C(=O)O)c1ccc(C(O)CCCN2CCC(C(O)(c3ccccc3)c3ccccc3)CC2)cc1 (stereo not drawn)
6. COc1cc(C)c(Cc2cnc(N)nc2N)cc1OC
7. COc1ccc(Cl)cc1C(=O)NCCc1ccc(S(=O)(=O)NC(=O)NC2CCCCC2)cc1
8. OCC(O)CN1CCN(c2ccccc2)CC1 (stereo not drawn)

OUTPUT:
1: -13.3; 2: -5.28; 3: -3.46; 4: -6.42; 5: 0.91; 6: -19.5; 7: -17.4; 8: -7.12

For each of the compounds below, state activity, negative = cell killing.
1. CC(O)CN(CCN(CC(C)O)CC(C)O)CC(C)O (stereo not drawn)
2. CC1(C)CO[C@@H](CC(=O)O)CN1

OUTPUT:
1: 3.18; 2: -5.5

Quick request: activity, negative = cell killing for each listed item, please.
1. OC[C@H]1O[C@@H](O[C@@H]2[C@@H](CO)O[C@](O)(CO)[C@H]2O)[C@H](O)[C@@H](O)[C@H]1O
2. CN(C)CCCO[C@@H]1[C@H]2OC(C)(C)O[C@H]2O[C@@H]1C(O)CO (stereo partly drawn)
3. C[C@@H](O)[C@H](N)C(=O)O
4. CO/N=C(\C(=O)N[C@@H]1C(=O)N2C(C(=O)O)=C(CSc3nc(=O)c(O)nn3C)CS[C@H]12)c1csc(N)n1
5. NCCNCCNCCN
6. CCCCN1CCCC[C@H]1C(=O)Nc1c(C)cccc1C
7. O=c1cc[nH]c(=O)[nH]1

OUTPUT:
1: 8.93; 2: -18.3; 3: -16.8; 4: -10.7; 5: -28.2; 6: -12.7; 7: -13.5

Would you mind listing activity, negative = cell killing for each of the following compounds?
1. C[C@]12C[C@H](O)[C@H]3[C@@H](CCC4=CC(=O)CC[C@@]43C)[C@@H]1CC[C@@H]2C(=O)CO
2. N[C@H](C(=O)O)c1ccc(O)cc1
3. C[C@H](NC(CCc1ccccc1)C(=O)O)C(=O)N1CCC[C@H]1C(=O)O (stereo partly drawn)
4. NC(N)=NCCC[C@H](N)C(=O)O

OUTPUT:
[-22.1, -7.17, 1.9, -0.948]

Would you be so kind as to report activity, negative = cell killing for each listed record?
1. N[C@@H](CSSC[C@H](N)C(=O)O)C(=O)O
2. CCCCCCCCCCCCCCCCCCOCC(O)CO (stereo not drawn)
3. COc1ccc2cc1Oc1cc3c(cc1OC)CC[N+](C)(C)[C@H]3Cc1ccc(cc1)Oc1c(OC)c(OC)cc3c1[C@@H](C2)[N+](C)(C)CC3
4. C=Cc1c(C)c2cc3[nH]c(cc4nc(cc5nc(cc1[nH]2)C(C)=C5CCC(=O)O)C(CCC(=O)O)=C4C)c(C)c3C=C
5. Cc1ccc(C(C)C)cc2c(C)ccc1-2
6. Oc1ccc(C(O)CNCCCCCCNCC(O)c2ccc(O)c(O)c2)cc1O (stereo not drawn)
7. C[C@H]1O[C@@H](n2cc(F)c(=O)[nH]c2=O)[C@H](O)[C@@H]1O
8. [O-][n+]1cccc(CO)c1

OUTPUT:
1: 8.78; 2: 9.38; 3: -5.75; 4: -20.2; 5: 5.15; 6: -27.7; 7: -17.4; 8: -10.2

State recorded activity, negative = cell killing for all listed compounds.
1. O=C1O[C@H](CO)[C@@H](O)[C@H](O)[C@H]1O
2. OCC(CO)N[C@H]1C[C@](O)(CO)[C@@H](O)[C@H](O)[C@H]1O
3. O=C1N=C(O)CN1/N=C/c1ccc(-c2ccc([N+](=O)[O-])cc2)o1

OUTPUT:
1. 6.72
2. 10.9
3. 2.91

Could you tell me activity, negative = cell killing for each of these compounds? They are listed below.
1. O=C1NC(=O)[C@@]2(CCOc3ccc(F)cc32)N1
2. C=CCn1c(=O)n([C@@H]2O[C@H](CO)[C@@H](O)[C@H]2O)c2nc(N)[nH]c(=O)c21
3. Cc1ncc(COP(=O)(O)O)c(C=O)c1O
4. O=C(O)[C@@H]1CSCN1

OUTPUT:
[4.44, 2.91, 0.448, 4.12]

List activity, negative = cell killing for every entry below, keeping the order given.
1. CCCCCCCCCCCCCCCC(=O)NCCO
2. Nc1cc(=O)[nH]c(N)n1

OUTPUT:
1. -8.68
2. -2.29

Source listed as PubChem BioAssay (NCATS).
